// data source = paper PMC11915372

Listed here are compounds together with their documented Hepatocyte Cli.
# Assay type: in vitro ADME, mouse
# Condition summary: mouse
Output spec: scalar in mL/min/g, unitless text.

Example compounds with recorded Hepatocyte Cli:
CCOC(=O)c1nc(-c2ccccc2)oc1NC(=O)c1c(F)c(F)c(F)c(F)c1F [Compound 34]    10
CCOC(=O)c1nc(C)oc1NS(=O)(=O)c1c(F)c(F)c(F)c(F)c1F [Compound 30]    0.8
CCOC(=O)c1nc(COC)oc1NC(=O)c1c(F)c(F)c(F)c(F)c1F [Compound 33]    7.5
CCOC(=O)c1nc(C)oc1NC(=O)c1c(F)cc(F)c(F)c1F [Compound 27]    3.4
Cc1ncc(NC(=O)c2c(F)c(F)c(F)c(F)c2F)o1 [Compound 37, Cc1ncc(o1)NC(=O)c1c(c(c(c(c1F)F)F)F)F]    5.8

What value of measured Hepatocyte Cli is listed for Cc1nc(C(=O)OC(C)(C)C)c(NC(=O)c2c(F)c(F)c(F)c(F)c2F)o1 [Compound 36] ?
26

What value of measured Hepatocyte Cli is listed for Cc1nc(-c2ncco2)c(NC(=O)c2c(F)c(F)c(F)c(F)c2F)o1 [Compound 41] ?
12

What value of measured Hepatocyte Cli is listed for COC(=O)c1nc(C)oc1NC(=O)c1c(F)c(F)c(F)c(F)c1F [Compound 23] ?
8.1
